Field: log10 of IC50. Provide a value for each of the compounds that follow.
system-name: GDP-bound KRAS protein (aa 1-169), containing both G12C and C118A amino acid substitutions (Homo sapiens, UniProt P01116, C118A/G12C)
Sequence (P01116 1-169 isoform P01116-2 G12C/C118A): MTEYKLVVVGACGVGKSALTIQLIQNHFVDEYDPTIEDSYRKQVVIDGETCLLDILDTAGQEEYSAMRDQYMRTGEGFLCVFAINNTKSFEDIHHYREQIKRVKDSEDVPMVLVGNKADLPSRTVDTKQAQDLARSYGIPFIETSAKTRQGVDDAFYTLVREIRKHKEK
experimental-protocol: Coupled Nucleotide Exchange Assay (SOS-mediated nucleotide exchange, AlphaScreen)
Assay type: biochemical
reported-conditions: compound pre-incubation either 5 min or 2 hours (not stated per compound); SOS and GTP added, cRAF AlphaScreen read-out
log10 IC50, nM

| compound | log10 of IC50 |
| --- | --- |
| C=CC(=O)N1CCN(C2=NS(=O)(=O)N(c3ccccc3C(C)C)c3nc(-c4c(O)cccc4F)c(F)cc32)[C@@H](C)C1 [Example 5] | 3.01 |

Field: log10 of IC50. Fill in for each record below.
1. C=CC(=O)N1CCN(C2=NS(=O)(=O)N(c3ccccc3C(C)C)c3nc(-c4ccccc4S(C)(=O)=O)c(Cl)cc32)[C@@H](C)C1 [Example 1-9]
2. C=CC(=O)N1C[C@H](C)N(C2=NS(=O)(=O)N(c3c(C)cc(CN(C)C)nc3C(C)C)c3nc(-c4ccccc4F)c(Cl)cc32)C[C@H]1C [Example 4]
3. C=CC(=O)N1C[C@H](C)N(C2=NS(=O)(=O)N(c3c(C)cc(N)nc3C(C)C)c3nc(-c4ccccc4F)c(Cl)cc32)C[C@H]1C (atropisomer, axis not shown) [Example 10]
4. C=CC(=O)N1C[C@H](C)N(C2=NS(=O)(=O)N(c3c(C)ccnc3C(C)C)c3nc(-c4ccccc4C)c(Cl)cc32)C[C@H]1C [Example 1-12]

1: 2.28; 2: 3.78; 3: 3.10; 4: 2.78

For the compound C=CC(=O)N1C[C@H](C)N(C2=NS(=O)(=O)N(c3c(N)ncnc3C(C)C)c3nc(-c4ccccc4F)c(Cl)cc32)C[C@H]1C (single isomer, unassigned) [Example 9-1] , what log10 of IC50 is on record?
2.23
